methodNotes: xn = mol fraction of the nth substance listed, in the solute-free solvent
conditionSummary: 293.15 K; x2 = 0.1666
For each entry below, report its solubility (g/100 g solution) value.

Item under review: c1ccc(-c2ccc(C(c3ccccc3)n3ccnc3)cc2)cc1 (centres undefined) + CC(C)O + O . Reported solubility (g/100 g solution)?
0.692

solubility (g/100 g solution) for Nc1nc2ccc(OC(F)(F)F)cc2s1 + CCCO + O ?
23.1

Fill in the blank: the reported solubility (g/100 g solution) of CC1CCC2C(C)C(OC(=O)CCC(=O)O)OC3OC4(C)CCC1C32OO4 (centres undefined) + CC(C)O + O is ____.
1.43

Which solubility (g/100 g solution) reading was recorded for the molecule c1ccc(-c2ccc(C(c3ccccc3)n3ccnc3)cc2)cc1 (centres undefined) + CCCO + O ?
0.724

----------
methodNotes: xn = mol fraction of the nth substance listed, in the solute-free solvent
conditionSummary: 318.15 K; x2 = 0.7
Assignment: determine reported solubility (g/100 g solution) for the given compounds.
In your answer, state the number alone without any accompanying words.

Can you look up the measured solubility (g/100 g solution) of CCOc1ccccc1C(N)=O + CC#N + CC(C)O for me?
15.6

// lookup solubility (g/100 g solution) for CCOc1ccccc1C(N)=O + CO + CC#N
24.5

# query: solubility (g/100 g solution) of entry Cc1c(Br)c(=O)n(C2CCCC2)c2nc(Cl)ncc12 + CCOC(C)=O + CCO
1.48

Returns the measured solubility (g/100 g solution) for the input compound. Input: Cc1c(Br)c(=O)n(C2CCCC2)c2nc(Cl)ncc12 + CC1=CC(=O)CC(C)(C)C1 + CC(C)O
4.02

Need solubility (g/100 g solution) of CCOc1ccccc1C(N)=O + CCO + CC#N , thanks.
18.3

Need solubility (g/100 g solution), item Cc1c(Br)c(=O)n(C2CCCC2)c2nc(Cl)ncc12 + C1CCOC1 + CCO
10.2

----------
methodNotes: xn = mol fraction of the nth substance listed, in the solute-free solvent
conditionSummary: 308.15 K; x2 = 0.1
readoutType: solubility (g/100 g solution)

solubility (g/100 g solution) for CCOc1ccccc1C(N)=O + CCO + CC#N ?
8.19

Name the reported solubility (g/100 g solution) value associated with the compound CCOc1ccccc1C(N)=O + CC#N + CC(C)O
6.49

// returns reported solubility (g/100 g solution) for input Cc1c(Br)c(=O)n(C2CCCC2)c2nc(Cl)ncc12 + CC1=CC(=O)CC(C)(C)C1 + CC(C)O
0.702

Need solubility (g/100 g solution), item Cc1c(Br)c(=O)n(C2CCCC2)c2nc(Cl)ncc12 + C1CCOC1 + CCO
1.82

Entry Cc1c(Br)c(=O)n(C2CCCC2)c2nc(Cl)ncc12 + CCOC(C)=O + CCO has what solubility (g/100 g solution)?
0.506

Need solubility (g/100 g solution), item CCOc1ccccc1C(N)=O + CO + CC#N
8.43

----------
methodNotes: xn = mol fraction of the nth substance listed, in the solute-free solvent
conditionSummary: 283.15 K; x2 = 0.6
readoutType: solubility (g/100 g solution)
Simply state the number, no unit and no words.

// returns reported solubility (g/100 g solution) for input N#CCNC(=O)c1cnccc1C(F)(F)F + CCOC(C)=O + CCO
5.43

// query solubility (g/100 g solution) value for entry Cl.NC(Cc1ccccc1)C(=O)OCc1ccccc1 (stereo not given) + CO + CC(C)=O
5.52

GET /values?readout=solubility (g/100 g solution)&item= Cl.N=C(N)NC(=N)N1CCOCC1 + O + CC(C)O
13.2

Param item = O=C(NC(C(=O)O)c1ccccc1)OCc1ccccc1 (stereo not given) + CCO + O ; retrieve measured solubility (g/100 g solution).
6.29

Give its solubility (g/100 g solution) value. Item: COC(=O)C(N)CS.Cl (stereo not given) + CCO + ClCCl
4.64

For the compound Cc1ncc(CO)c(CO)c1O.Cl + O + CC#N , what solubility (g/100 g solution) is on record?
6.51

Given the compound CCOC(=O)OC1=C(c2cc(C)ccc2C)C(=O)NC12CCC(OC)CC2 (stereo not given) + CCO + O , what is its reported solubility (g/100 g solution)?
3.59

Could you tell me which solubility (g/100 g solution) is on file for Cc1c(Br)c(=O)n(C2CCCC2)c2nc(Cl)ncc12 + CCOC(C)=O + CCO ?
0.514

Need solubility (g/100 g solution) of CCOC(=O)OC1=C(c2cc(C)ccc2C)C(=O)NC12CCC(OC)CC2 (stereo not given) + CO + O , thanks.
1.82

GET /values?readout=solubility (g/100 g solution)&item= Cc1ncc(CO)c(CO)c1O.Cl + O + CC(C)O
3.18

Consider the compound shown here: Cc1c(Br)c(=O)n(C2CCCC2)c2nc(Cl)ncc12 + C1CCOC1 + CCO What is its recorded solubility (g/100 g solution)?
3.07

Item Cc1c(Br)c(=O)n(C2CCCC2)c2nc(Cl)ncc12 + CC1=CC(=O)CC(C)(C)C1 + CC(C)O has what recorded solubility (g/100 g solution)?
0.506

Consider the compound CCOC(=O)OC1=C(c2cc(C)ccc2C)C(=O)NC12CCC(OC)CC2 (stereo not given) + CC(C)=O + O and give its measured solubility (g/100 g solution).
9.16

What measured solubility (g/100 g solution) goes with Cc1ncc(CO)c(CO)c1O.Cl + O + CCCO ?
4.45

Quick check: solubility (g/100 g solution) of CCOC(=O)OC1=C(c2cc(C)ccc2C)C(=O)NC12CCC(OC)CC2 (stereo not given) + CC(C)O + O ?
3.92
